tgt: LRRK2 (Homo sapiens, UniProt Q5S007)
Sequence (Q5S007 970-2527 limits assumed): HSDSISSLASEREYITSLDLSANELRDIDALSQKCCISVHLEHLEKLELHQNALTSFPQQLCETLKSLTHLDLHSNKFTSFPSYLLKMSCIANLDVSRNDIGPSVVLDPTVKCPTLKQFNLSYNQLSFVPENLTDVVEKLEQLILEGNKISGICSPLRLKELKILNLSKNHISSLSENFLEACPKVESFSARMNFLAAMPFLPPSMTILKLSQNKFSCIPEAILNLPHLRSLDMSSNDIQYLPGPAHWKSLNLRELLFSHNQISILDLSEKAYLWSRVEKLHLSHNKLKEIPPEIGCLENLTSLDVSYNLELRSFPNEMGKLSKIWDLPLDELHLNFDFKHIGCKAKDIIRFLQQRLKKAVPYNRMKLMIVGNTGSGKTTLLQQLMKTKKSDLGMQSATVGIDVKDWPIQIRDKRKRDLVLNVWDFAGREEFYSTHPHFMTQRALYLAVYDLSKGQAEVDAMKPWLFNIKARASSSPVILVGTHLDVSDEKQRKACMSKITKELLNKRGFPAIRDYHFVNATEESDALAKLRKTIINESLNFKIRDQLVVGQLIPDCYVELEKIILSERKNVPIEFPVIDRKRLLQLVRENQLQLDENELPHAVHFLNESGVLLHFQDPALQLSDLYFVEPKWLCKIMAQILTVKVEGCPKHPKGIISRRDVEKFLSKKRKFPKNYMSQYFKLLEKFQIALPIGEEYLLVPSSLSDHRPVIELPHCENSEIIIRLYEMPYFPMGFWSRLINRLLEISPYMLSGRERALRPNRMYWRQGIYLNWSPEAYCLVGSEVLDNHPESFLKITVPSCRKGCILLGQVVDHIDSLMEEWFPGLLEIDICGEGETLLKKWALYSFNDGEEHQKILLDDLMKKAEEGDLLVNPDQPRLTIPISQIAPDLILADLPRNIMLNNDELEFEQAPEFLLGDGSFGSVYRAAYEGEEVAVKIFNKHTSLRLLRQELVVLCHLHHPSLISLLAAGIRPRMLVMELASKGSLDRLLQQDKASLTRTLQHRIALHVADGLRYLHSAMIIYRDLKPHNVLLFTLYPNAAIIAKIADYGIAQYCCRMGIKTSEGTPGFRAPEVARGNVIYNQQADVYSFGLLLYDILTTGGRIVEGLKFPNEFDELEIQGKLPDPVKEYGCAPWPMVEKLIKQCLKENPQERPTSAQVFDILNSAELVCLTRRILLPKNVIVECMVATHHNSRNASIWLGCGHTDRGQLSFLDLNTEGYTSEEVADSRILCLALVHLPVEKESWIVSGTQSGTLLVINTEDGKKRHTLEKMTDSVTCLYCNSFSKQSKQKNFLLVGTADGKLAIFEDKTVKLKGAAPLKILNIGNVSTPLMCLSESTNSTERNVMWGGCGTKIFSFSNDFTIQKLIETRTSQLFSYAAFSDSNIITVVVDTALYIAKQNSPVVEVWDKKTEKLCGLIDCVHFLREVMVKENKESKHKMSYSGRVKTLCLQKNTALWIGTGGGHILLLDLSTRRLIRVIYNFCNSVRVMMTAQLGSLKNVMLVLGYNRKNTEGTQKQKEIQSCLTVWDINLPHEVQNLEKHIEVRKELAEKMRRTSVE
protocolDetails: LRRK2-LRRK2 G2019S-Assay (LanthaScreen Eu Kinase Binding Assay)
particulars: 5 nM LRRK2 or their mutants, 10 nM tracer 236, RT 1 h; read-out: LRRK2 Activities: IC50
pIC50: −log10 of the molar value.
Measured pIC50, listed per entry for reference.

Q: Which pIC50 value belongs to "c1cc(-c2nc(Nc3ccc(N4CCOCC4)cc3)c3[nH]ncc3n2)cs1" ?
Result: 7.00 to 8.00

Q: Proceed to "Nc1cccc(Nc2nc(-c3ccsc3)nc3cn[nH]c23)c1"
Result: 7.00 to 8.00

Q: Moving on to "CS(=O)(=O)c1cccc(Nc2nc(-c3cccs3)nc3cn[nH]c23)c1"
Result: 6.00 to 7.00

Q: # repeat for "COc1ccc(-c2nc(Nc3ccc(N4CCN(C(C)=O)CC4)cc3)c3[nH]ncc3n2)cc1"
Result: 6.00 to 7.00

Q: Likewise for "c1ccc(-c2nc(Nc3ccc4[nH]nnc4c3)c3[nH]ncc3n2)cc1" ?
Result: 6.00 to 7.00
